target: Recombinant human FAP (Homo sapiens); construct: purchased R&D systems; assay: FAP inhibition, fluorogenic substrate Z-Gly-Pro-AMC; assay type: biochemical; details: 25° C., Z-Gly-Pro-AMC substrate
Sequence (Q12884 whole entry): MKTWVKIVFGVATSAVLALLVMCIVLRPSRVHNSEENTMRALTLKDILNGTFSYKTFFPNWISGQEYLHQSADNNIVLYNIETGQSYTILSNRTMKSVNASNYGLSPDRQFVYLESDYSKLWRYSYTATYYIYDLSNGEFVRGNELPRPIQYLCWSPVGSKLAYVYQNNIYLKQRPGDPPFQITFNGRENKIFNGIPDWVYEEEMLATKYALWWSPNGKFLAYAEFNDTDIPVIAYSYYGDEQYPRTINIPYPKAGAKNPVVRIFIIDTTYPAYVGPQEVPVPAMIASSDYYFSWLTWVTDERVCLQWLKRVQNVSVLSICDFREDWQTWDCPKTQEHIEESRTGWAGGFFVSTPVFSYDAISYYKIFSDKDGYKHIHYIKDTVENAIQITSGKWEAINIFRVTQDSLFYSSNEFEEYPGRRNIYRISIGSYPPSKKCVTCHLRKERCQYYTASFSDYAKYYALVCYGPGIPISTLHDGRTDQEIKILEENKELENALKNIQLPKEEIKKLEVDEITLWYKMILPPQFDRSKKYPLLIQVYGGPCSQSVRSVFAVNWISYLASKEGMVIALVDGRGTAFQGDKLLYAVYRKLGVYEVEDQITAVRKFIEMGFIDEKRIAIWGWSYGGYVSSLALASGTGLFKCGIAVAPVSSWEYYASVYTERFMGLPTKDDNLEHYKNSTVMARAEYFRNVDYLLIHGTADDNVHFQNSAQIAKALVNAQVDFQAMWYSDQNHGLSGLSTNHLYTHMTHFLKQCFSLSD
Observed Property: IC50 (nM)
Number in nM, nothing else.

// query IC50 value for entry N#C[C@@H]1CCCN1C(=O)CN1CC[C@H](NC(=O)c2coc3c(F)cc(F)cc23)C1
10.9

// query IC50 value for entry N#C[C@@H]1CCCN1C(=O)CN1CC[C@H](Oc2ccc3c(c2)CCC(=O)N3)C1
82.3

// query IC50 value for entry COc1ccc(NC2CCN(CC(=O)N3CCC[C@H]3C#N)CC2)c2cccnc12
5.5

// query IC50 value for entry CN(c1cccc2cnccc12)[C@H]1CCN(CC(=O)N2CCC[C@H]2C#N)C1
7.3

// query IC50 value for entry COc1cc2nccc(O[C@H]3CCN(CC(=O)N4CCC[C@H]4C#N)C3)c2cc1OC
0.57
